Origin of measurements: patent US20030171579A1

Values of pIC50 reported for UniProtKB P00742 appear below.
Sequence (P00742 235-488 limits assumed): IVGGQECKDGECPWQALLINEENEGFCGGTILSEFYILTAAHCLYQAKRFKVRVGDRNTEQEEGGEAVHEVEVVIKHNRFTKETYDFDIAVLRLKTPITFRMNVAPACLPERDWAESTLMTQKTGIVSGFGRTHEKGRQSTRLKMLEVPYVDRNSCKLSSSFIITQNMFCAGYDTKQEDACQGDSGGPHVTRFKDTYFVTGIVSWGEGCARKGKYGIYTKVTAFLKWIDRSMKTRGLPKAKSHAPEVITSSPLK
Sequence (P00742 41-179 limits assumed): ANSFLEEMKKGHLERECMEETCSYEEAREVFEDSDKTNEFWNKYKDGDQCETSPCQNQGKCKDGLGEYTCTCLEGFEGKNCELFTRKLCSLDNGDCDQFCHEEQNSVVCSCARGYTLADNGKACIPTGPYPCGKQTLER
# pIC50: negative log10 of molar concentration; output just the value

{"SMILES_REPR": "CS(=O)(=O)c1ccccc1-c1ccc(NC(=O)N(Cc2ccccc2)Cc2cccc(C(=N)N)c2)cc1", "pIC50": 7.10}

**Query** Consider the compound `N=C(N)c1cccc(CN(C(=O)Nc2ccc(-c3ccccc3S(N)(=O)=O)cc2)c2ccccc2)c1` and give its measured pIC50.
**Result** 6.48
